Reported IC50 values are given for each entry in this list.
Biological target: human progesterone receptor B (Homo sapiens, UniProt P06401)
Construct: expressed in transfected cells; host or cells: SK-N-MC human neuroblastoma cells, stably transfected with pRChPR-B-neo and pMMTV-LUC
Sequence (P06401 1-933): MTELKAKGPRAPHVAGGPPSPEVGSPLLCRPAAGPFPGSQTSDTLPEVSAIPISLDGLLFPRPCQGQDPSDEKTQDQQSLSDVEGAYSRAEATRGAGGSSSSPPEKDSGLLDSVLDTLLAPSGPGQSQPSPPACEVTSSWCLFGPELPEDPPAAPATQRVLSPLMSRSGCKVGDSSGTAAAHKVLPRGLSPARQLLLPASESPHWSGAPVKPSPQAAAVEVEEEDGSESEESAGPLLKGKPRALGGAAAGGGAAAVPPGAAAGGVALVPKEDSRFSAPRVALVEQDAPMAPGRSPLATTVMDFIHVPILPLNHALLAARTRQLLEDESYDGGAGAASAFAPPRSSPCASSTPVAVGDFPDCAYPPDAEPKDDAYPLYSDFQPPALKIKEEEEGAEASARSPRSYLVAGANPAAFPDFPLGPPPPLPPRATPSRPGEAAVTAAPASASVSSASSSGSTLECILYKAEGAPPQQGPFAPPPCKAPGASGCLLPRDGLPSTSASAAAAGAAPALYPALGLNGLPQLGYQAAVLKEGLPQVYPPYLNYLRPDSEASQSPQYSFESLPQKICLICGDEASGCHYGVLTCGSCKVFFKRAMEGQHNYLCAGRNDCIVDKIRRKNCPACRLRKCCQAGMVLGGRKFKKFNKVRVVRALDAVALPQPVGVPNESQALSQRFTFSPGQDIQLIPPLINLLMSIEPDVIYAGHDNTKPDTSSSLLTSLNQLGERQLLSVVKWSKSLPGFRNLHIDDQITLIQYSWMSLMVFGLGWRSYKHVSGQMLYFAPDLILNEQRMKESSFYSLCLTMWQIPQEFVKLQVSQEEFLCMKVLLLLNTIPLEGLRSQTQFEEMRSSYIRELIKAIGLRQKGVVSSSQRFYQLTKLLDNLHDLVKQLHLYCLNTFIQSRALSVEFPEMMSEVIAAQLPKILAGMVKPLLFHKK
Test: Progesterone receptor-antagonistic action in stably transfected SK-N-MC cells, PR-B, MMTV-LUC reporter
Type: cell-based
Settings: read-out: IC50 PR-B

molecule: CC(C)(C)c1ccc(NC(=O)NCC#Cc2ccc([C@H]3C[C@@]4(C)[C@@H](CC[C@@]4(O)C(F)(F)C(F)(F)F)[C@@H]4CCC5=CC(=O)CCC5=C43)cc2)cc1 [Example 33]
measured parameter: IC50
experimental value: 0.8 nM

Considering Cc1noc(C)c1NC(=O)NCC#Cc1ccc([C@H]2C[C@@]3(C)C(CC[C@@]3(O)C(F)(F)C(F)(F)F)C3CCC4=CC(=O)CCC4=C32)cc1 (some centres unmarked) [Example 28] , its IC50 with human progesterone receptor B (Homo sapiens, UniProt P06401) was recorded as 0.08 nM

Entry C[C@]12C[C@H](c3ccc(CO)cc3)C3=C4CCC(=O)C=C4CC[C@H]3[C@@H]1CC[C@@]2(O)C(F)(F)C(F)(F)F [Ref. 1*, reference compound] : IC50 on human progesterone receptor B (Homo sapiens, UniProt P06401) = 0.3 nM

Observed IC50 on human progesterone receptor B (Homo sapiens, UniProt P06401), entry CCOC(=O)C=CC=CC#Cc1ccc([C@H]2C[C@@]3(C)C(CC[C@@]3(O)C(F)(F)C(F)(F)F)C3CCC4=CC(=O)CCC4=C32)cc1 (some centres unmarked) [Example 7] , equals 0.9 nM

The recorded IC50 with human progesterone receptor B (Homo sapiens, UniProt P06401) for C[C@]12C[C@H](c3ccc(C#CCNC(=O)NCc4ccccc4)cc3)C3=C4CCC(=O)C=C4CCC3C1CC[C@@]2(O)C(F)(F)C(F)(F)F (some centres unmarked) [Example 39] was 0.1 nM

Noted IC50 for CCNC(=O)OCC#Cc1ccc([C@H]2C[C@@]3(C)C(CC[C@@]3(O)C(F)(F)C(F)(F)F)C3CCC4=CC(=O)CCC4=C32)cc1 (some centres unmarked) [Example 45] , tested on human progesterone receptor B (Homo sapiens, UniProt P06401): 0.01 nM

Result for CCOC(=O)CNC(=O)NCC#Cc1ccc([C@H]2C[C@@]3(C)C(CC[C@@]3(O)C(F)(F)C(F)(F)F)C3CCC4=CC(=O)CCC4=C32)cc1 (some centres unmarked) [Example 42] , tested on human progesterone receptor B (Homo sapiens, UniProt P06401), IC50: 0.8 nM
